- Test system: SW480 cells
- Assay Info: Cytotoxicity and IC50 comparison with CBI by WST assay, 48 hours
- Type: cell-based, human
- Run Conditions: Homo sapiens, WST-8
- Description: From the cell lines mentioned above, a large intestine cancer cell line SW480 was used as cells expressing PD-1, and a large intestine cancer cell line RKO was used as cells expressing PD-L1. An experiment was conducted to compare toxicity and IC50 between the PIP-drug conjugate compound CCC07-01 and the alkylating agent CBI used as a drug conjugate therein. […] Then, the cell count was calculated at a wavelength of 450 nm by the colorimetric analysis method using a microplate reader. […]
pIC50: −log10 of the molar value.
Metric: pIC50

# Molecule, Measured Number
records = [
    ("Oc1cc2c(c3ccccc13)C(CCl)CN2 (stereo not shown) [CBI, reference compound]", 8.00),
]

Provenance of the data: patent US20190262457A1
